# Tested on: retinal degeneration mouse model
# assay_text: Electroretinogram (ERG) in blue LED-induced retinal degeneration mouse model
# Format: in vivo, albino BALB/c mice
# protocol_conditions: average of a-wave and b-wave, compound 24 nM, Com. Ex. 4 25 mg/kg, intravitreal
measured_parameter: Wavelength enhanced multiple compared to normal saline-treated group, Average value

1 = CCC1(C(=O)NC)CCCN(Cc2oc(-c3ccccc3-c3cccc4c3CN(C)C4=O)cc2C)C1 (stereo not drawn)
2 = CN1Cc2c(cccc2-c2ccccc2-c2ccc(CNCc3cnn(C)c3)o2)C1=O
Req: Min Wavelength enhanced multiple compared to normal saline-treated group, Average value? 1 | 2 In your reply, give the label of the chosen option.
Resp: 1
(1: 1.30, 2: 2.04)

I = CNC(=O)C1(Cc2ccc(F)cc2)CCN(Cc2oc(-c3ccccc3-c3cccc4c3CN(C)C4=O)cc2C)CC1
II = CNC(=O)C1(Cc2ccc(F)cc2)CCN(Cc2ccc(-c3ccccc3-c3cccc4c3CN(C)C4=O)o2)CC1
Req: Select one. Lower Wavelength enhanced multiple compared to normal saline-treated group, Average value: I or II Answer with the label corresponding to your selection.
Resp: I

====

# study_target: BRD3 (BD1) (Homo sapiens)
# Construct: a bromodomain of BRD2 (BD1) and BRD3 (BD1), one of the BRD protein family; GST
# Sequence (Q15059 34-140 limits assumed, species assumed): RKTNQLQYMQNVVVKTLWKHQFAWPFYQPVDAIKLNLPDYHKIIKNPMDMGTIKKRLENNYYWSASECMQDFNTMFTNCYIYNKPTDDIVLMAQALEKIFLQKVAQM
# assay_text: Binding inhibitory effect on BRD3 protein (same manner as Experimental Example 1-1)
measured_parameter: IC50 (µM)

Known IC50 results, listed for orientation:
CNC(=O)CC1C(=O)NCCN1Cc1oc(-c2ccccc2-c2cccc3c2CN(C)C3=O)cc1C (stereo not shown)
3.77
CNC(=O)c1ccc(-c2ccccc2-c2cccc3c2CN(C)C3=O)o1
2.39
CN1Cc2c(cccc2-c2ccccc2-c2ccc(CN3CCN(c4cccc(F)c4)CC3)o2)C1=O
2.4
CN1Cc2c(cccc2-c2ccccc2-c2ccc(CN3CCCCC3)o2)C1=O
2.99
CCC1(C(=O)NC)CCCN(Cc2ccc(-c3ccccc3-c3cccc4c3CN(C)C4=O)o2)C1 (stereo not shown)
1.67

1 = CN1Cc2c(cccc2-c2ccccc2-c2ccc(CN3CCC(Cc4ccc(F)cc4)(C(=O)NCc4ccccc4)CC3)o2)C1=O
2 = CNCc1oc(-c2ccccc2-c2cccc3c2CN(C)C3=O)cc1C
Req: Between 1 and 2 , whose measured IC50 reads higher? Identify your pick by its label.
Resp: 1

I = CN1Cc2c(cccc2-c2ccccc2-c2ccc(CN3CCC(Cc4ccccc4)(C(N)=O)CC3)o2)C1=O
II = CN1Cc2c(cccc2-c2ccccc2-c2ccc(CN3CCC4(CC3)C(=O)N(C)CC4c3ccc(F)cc3)o2)C1=O (stereo not shown)
III = CN1Cc2c(cccc2-c2ccccc2-c2ccc(CN3CCC(N(C)C)CC3)o2)C1=O
Req: Would you mind ranking these molecules by ascending IC50? Could you list the labels in the order requested?
Resp: II, III, I
(II: 1.3 µM, III: 2.56 µM, I: 4.86 µM)

====

# study_target: BRD2 (BD1) (Homo sapiens)
# Construct: a bromodomain of BRD2 (BD1) and BRD3 (BD1), one of the BRD protein family
# Sequence (P25440 74-180 limits assumed, species assumed): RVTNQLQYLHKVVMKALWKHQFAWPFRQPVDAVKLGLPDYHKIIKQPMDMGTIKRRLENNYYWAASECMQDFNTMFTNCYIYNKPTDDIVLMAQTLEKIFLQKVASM
# assay_text: Binding inhibitory effect on BRD2 protein (AlphaScreen, GST-BRD2 (BD1) / biotinylated acetyl-histone H4 peptide)
# protocol_conditions: 100 nM GST-BRD2 (BD1), 100 nM biotinylated acetyl-histone H4 (Lys5, 8, 12, 16) peptide
measured_parameter: IC50 (µM)

A = COCNCc1ccc(-c2ccccc2-c2cccc3c2CN(C)C3=O)o1 [Compound 4]
B = CNC(=O)C1(Cc2ccc(F)cc2)CCN(Cc2oc(-c3ccccc3-c3cccc4c3CN(C)C4=O)cc2C)CC1 [Compound 39]
Req: Hi, I'm comparing A with B and wondering which one has the bigger number for IC50. Any idea? Reply with the label of the item you choose.
Resp: A

I = CNCc1oc(-c2ccccc2-c2cccc3c2CN(C)C3=O)cc1C [Compound 38]
II = CNC(=O)C1(C)CN(Cc2ccc(-c3ccccc3-c3cccc4c3CN(C)C4=O)o2)CCC1O (stereo not shown) [Compound 25]
Req: Among I and II , which shows a numerically higher IC50 result? Please respond with the label that marks your chosen entry.
Resp: I
